assay: Solubility in toluene; type: physicochemical; conditions: solvent toluene
Endpoint Name: dissolved in toluene in an amount of

Quick one: dissolved in toluene in an amount of for O=c1n(-c2cccc(-n3c4ccccc4c4ccccc43)c2)c2ccccc2n1-c1cccc(-n2c3ccccc3c3ccccc32)c1 ?
≥ 3 percent by weight

Can you look up the measured dissolved in toluene in an amount of of O=c1n(-c2cccc(-n3c4ccccc4c4ccccc43)c2)c2cccnc2n1-c1cccc(-n2c3ccccc3c3ccccc32)c1 for me?
≥ 3 percent by weight

What does the data say about its dissolved in toluene in an amount of? Entry: O=c1n(-c2cccc(-c3ccccc3)c2)c2ccccc2n1-c1cccc(-c2ccccc2)c1
≥ 5.0 percent by weight

Request the reported dissolved in toluene in an amount of associated with O=c1n(-c2ccc(N(c3ccccc3)c3ccc(-c4ccccc4)cc3)cc2)c2ccccc2n1-c1ccc(N(c2ccccc2)c2ccc(-c3ccccc3)cc2)cc1
≥ 5.0 percent by weight

Would you kindly share the measured dissolved in toluene in an amount of for O=c1n(-c2cccc(-n3c4ccccc4c4ccncc43)c2)c2ccccc2n1-c1cccc(-n2c3ccccc3c3ccncc32)c1 ?
≥ 3 percent by weight
